System: Rattus norvegicus
Assay: Antiamnesic activity against scopolamine-induced memory loss in Wistar rat assessed as number of mistake done at 0.1 mg/kg, ip measured for 15 mins by passive avoidance step-down task test
Assay type: functional
Conditions: route intraperitoneal
The entries below are paired with their reported Activity.
Answer with a bare number; do not write a unit.

>  <Molecule>
CN1CCC=C(C2SCC(=O)N2c2ccc(Cl)cc2)C1 (stereo unspecified)

>  <Assay Target>
Rattus norvegicus

>  <Recorded Value>
28

$$$$
>  <Molecule>
CN1CCC=C(C2SCC(=O)N2Cc2ccccc2)C1 (stereo unspecified)

>  <Assay Target>
Rattus norvegicus

>  <Recorded Value>
30

$$$$
>  <Molecule>
CCCCN1C(=O)CSC1C1=CCCN(C)C1 (stereo unspecified)

>  <Assay Target>
Rattus norvegicus

>  <Recorded Value>
12

$$$$
>  <Molecule>
CN1CCC=C(C2SCC(=O)N2c2ccc(Br)cc2)C1 (stereo unspecified)

>  <Assay Target>
Rattus norvegicus

>  <Recorded Value>
29

$$$$

Quick note, Activity for CN1CCC=C(C2SCC(=O)N2c2ccc(Nc3ccccc3)cc2)C1 (stereo unspecified) landed at 16

Quick note, Activity for CN1CCC=C(C2SCC(=O)N2c2ccc([N+](=O)[O-])cc2)C1 (stereo unspecified) landed at 25
